Please provide measured TGI for the entries that follow.
- System: K-562 leukemia
- test-details: NCI tumour cell line growth inhibition, 48 h

Return TGI (reported value) for this molecule: Cc1ccc(S(=O)(=O)Nc2ccc(-c3cc(-c4cccc(F)c4)c(C#N)c(N)n3)cc2)cc1 > 100 µM

Respond only with TGI recorded for O=P(O)(CN1CCN(CP(=O)(O)c2ccccc2)CCN(CP(=O)(O)c2ccccc2)CC1)c1ccccc1 > 100 µM

For [N-]=[N+]=CC(=O)CCC(=O)N(c1ccccc1)c1ccccc1 , write its TGI. > 10 µM

Note TGI for the molecule shown: [O-]c1c2c(nn1-c1ccc(Cl)cc1)c1ccccc1c[n+]2Cc1ccccc1 > 100 µM

Output TGI of CCOC(=O)CNc1nnnn1C1OC(CO)C(O)C1O (stereo unspecified) > 100 µM

Return TGI for the following molecule: COC(=O)C(/C(=N\NC(N)=S)C(=O)Nc1ccccc1[N+](=O)[O-])c1cnc2ccccc2n1 (stereo unspecified) > 100 µM

Consider the molecule COC1=CC(=O)c2nc(Cl)ccc2C1=O and give its recorded TGI. > 100 µM

Give a short answer stating reported TGI for O=c1oc2ccc3ccccc3c2cc1-c1nc2ccc([N+](=O)[O-])cc2o1 . > 100 µM

State its TGI: Cn1c(=O)c(Cl)c(N=[N+]=[N-])c2ccccc21 > 100 µM

State its TGI: FC(F)(F)c1cc(Nc2ccc3cc(OCCCN4CCOCC4)ccc3n2)ccc1Cl 3.83 µM

Name the recorded TGI of the molecule listed here: COC1C(O)C(C)OC(OC2CCC3(C)C(CCC4C3C(O)CC3(C)C(C5=CC(=O)OC5)CCC43O)C2)C1O (stereo unspecified) 5.28 µM

Could you please provide reported TGI for Nc1c(F)cc(-c2nc3cc(F)ccc3[se]2)cc1Br ? Thanks! > 100 µM

State its TGI for this molecule: CC(C)CCCC(C)[C@H]1CC[C@H]2N=C(NCc3ccccc3)CCC[C@]12C (stereo partly specified) 3.23 µM

Identify TGI associated with the molecule C#CC1NC(=O)C1N(CC)CC (stereo unspecified) > 100 µM

Note down TGI recorded for O=C(O)Cc1cccc2c(=O)c3cccc([N+](=O)[O-])c3oc12 > 100 µM

Determine its reported TGI: Cc1ccc(-c2cc(-c3ccco3)c(C#N)c(=O)n2C2OC(CO)C(O)C(O)C2O)cc1 (stereo unspecified) > 100 µM

Provide measured TGI value, entry: CSc1ccc(C(=O)/C=C/c2ccccc2Cl)cc1 58.3 µM

Annotate the molecule CN(C(=O)c1ccco1)C(=S)N1CCN(c2ccccn2)CC1 with its measured TGI. > 100 µM

Please report TGI for the following molecule: CCO/C(Cc1ccc(Cl)cc1)=N/NC(N)=S > 100 µM

Look up and report measured TGI for this entry: O=C1C(S(=O)(=O)c2ccccc2)=C(CS(=O)(=O)c2ccccc2)[C@@H](OCc2ccccc2)[C@@H]1OCc1ccccc1 35.8 µM

Retrieve TGI measured for O=c1cc(-c2ccccc2)[nH]c2cc(Cl)ccc12 and print it. 21.2 µM
